In this section we review reported nuclear count per well values for a set of molecules.
Tested on: HeLa;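 further: Hoechst-stained nuclei counted by automated confocal imaging of four fields per well in 384-well plates, with the robust Z-score based on the per-plate DMSO median and robust SD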
Test: nuclear count per well, robust Z-score vs DMSO; higher = more cells (less toxicity)
Settings: 10 µM; 6 h
observable: nuclear count per well

{"molecule": "CN1C(CCl)Nc2cc(Cl)c(S(N)(=O)=O)cc2S1(=O)=O (stereo not drawn) [Methyclothiazide]", "targetUnderTest": "HeLa", "observable": "nuclear count per well", "endpointResult": 0.529}
{"molecule": "CS(=O)(=O)CCNCc1ccc(-c2ccc3ncnc(Nc4ccc(OCc5cccc(F)c5)c(Cl)c4)c3c2)o1 [Lapatinib Ditosylate]", "targetUnderTest": "HeLa", "observable": "nuclear count per well", "endpointResult": 0.113}
{"molecule": "c1ccc(-c2ccc(CNc3nc(-c4ccccn4)nnc3-c3ccccc3)cc2)cc1", "targetUnderTest": "HeLa", "observable": "nuclear count per well", "endpointResult": -1.94}
{"molecule": "S=c1[nH]cnc2nc[nH]c12 [Mercaptopurine hydrate]", "targetUnderTest": "HeLa", "observable": "nuclear count per well", "endpointResult": -0.994}
{"molecule": "CCCC[C@@H](C)/C=C(C)/C=C(\\C)C(=O)NC1=C[C@@](O)(/C=C/C=C/C=C/C(=O)NC2=C(O)CCC2=O)[C@@H]2O[C@@H]2C1=O", "targetUnderTest": "HeLa", "observable": "nuclear count per well", "endpointResult": 1.21}
{"molecule": "CN1C(=O)CC(C)(c2ccccc2)C1=O (stereo not drawn) [Methsuximide]", "targetUnderTest": "HeLa", "observable": "nuclear count per well", "endpointResult": 0.327}
{"molecule": "OC[C@H]1O[C@@](CO)(O[C@H]2O[C@H](CO)[C@@H](O)[C@H](O)[C@H]2O)[C@@H](O)[C@@H]1O", "targetUnderTest": "HeLa", "observable": "nuclear count per well", "endpointResult": 1.5}
{"molecule": "C[C@]12CC[C@@H]3c4ccc(O)cc4CC[C@H]3[C@@H]1CCC2=O", "targetUnderTest": "HeLa", "observable": "nuclear count per well", "endpointResult": -0.811}

Reference source for all entries: the supplement of paper PMC9844399
